Target: UniProt:Q9BXF3
Sequence (Q9BXF3 whole entry, the tested form may be a part): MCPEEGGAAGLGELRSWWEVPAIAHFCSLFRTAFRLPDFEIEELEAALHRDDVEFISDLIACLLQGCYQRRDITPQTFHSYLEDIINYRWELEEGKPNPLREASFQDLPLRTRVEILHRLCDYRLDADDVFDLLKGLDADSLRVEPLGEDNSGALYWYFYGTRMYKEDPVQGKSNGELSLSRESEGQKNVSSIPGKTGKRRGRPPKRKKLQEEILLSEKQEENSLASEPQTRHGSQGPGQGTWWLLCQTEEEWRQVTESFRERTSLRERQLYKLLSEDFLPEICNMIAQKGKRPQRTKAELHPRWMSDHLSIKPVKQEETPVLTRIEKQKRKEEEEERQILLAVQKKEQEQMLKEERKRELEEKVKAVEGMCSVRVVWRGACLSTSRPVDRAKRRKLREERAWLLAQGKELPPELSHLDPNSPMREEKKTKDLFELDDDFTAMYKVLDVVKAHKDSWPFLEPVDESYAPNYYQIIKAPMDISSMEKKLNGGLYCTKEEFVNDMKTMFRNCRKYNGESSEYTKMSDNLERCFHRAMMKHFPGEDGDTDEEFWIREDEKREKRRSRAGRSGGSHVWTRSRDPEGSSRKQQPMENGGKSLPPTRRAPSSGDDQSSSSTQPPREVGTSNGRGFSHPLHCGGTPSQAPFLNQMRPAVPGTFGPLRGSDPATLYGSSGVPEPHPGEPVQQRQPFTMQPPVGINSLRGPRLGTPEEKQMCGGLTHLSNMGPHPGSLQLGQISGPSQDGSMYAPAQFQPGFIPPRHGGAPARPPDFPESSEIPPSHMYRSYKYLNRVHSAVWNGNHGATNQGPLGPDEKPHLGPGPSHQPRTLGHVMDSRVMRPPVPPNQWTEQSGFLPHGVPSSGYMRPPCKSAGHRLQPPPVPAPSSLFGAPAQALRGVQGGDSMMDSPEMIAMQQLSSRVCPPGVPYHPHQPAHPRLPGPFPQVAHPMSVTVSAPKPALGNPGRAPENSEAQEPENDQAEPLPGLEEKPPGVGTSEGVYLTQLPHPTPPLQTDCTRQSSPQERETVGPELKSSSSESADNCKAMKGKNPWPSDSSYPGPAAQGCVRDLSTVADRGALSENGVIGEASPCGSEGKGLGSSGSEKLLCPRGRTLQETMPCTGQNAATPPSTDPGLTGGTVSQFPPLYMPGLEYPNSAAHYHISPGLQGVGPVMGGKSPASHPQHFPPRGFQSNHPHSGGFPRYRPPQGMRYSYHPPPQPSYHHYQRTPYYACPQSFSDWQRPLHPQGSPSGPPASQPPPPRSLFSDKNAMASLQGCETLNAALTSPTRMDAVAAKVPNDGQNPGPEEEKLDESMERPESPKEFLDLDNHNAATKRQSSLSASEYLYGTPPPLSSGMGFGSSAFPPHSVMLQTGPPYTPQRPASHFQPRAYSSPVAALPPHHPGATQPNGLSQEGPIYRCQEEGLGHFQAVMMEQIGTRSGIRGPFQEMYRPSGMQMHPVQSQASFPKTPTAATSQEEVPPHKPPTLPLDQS
Assay: Displacement of Alexa Fluor 647-labeled GSK tracer from FLAG-6His-Tev-fused CECR2 (424 to 543 residue) (unknown origin) measured after 15 mins by TR-FRET assay
pIC50 listing for selected compounds.
Field pIC50 (float): negative decimal logarithm of the concentration in molar.

These solved cases illustrate the format of a correct answer.
[[record]]
compound_string = "C[C@H]1CCN(S(=O)(=O)c2cc(NC(=O)Cn3nnc4c3CCNC4)ccc2Br)C1"
target_under_test = "UniProt:Q9BXF3"
endpoint_value = 6.60

[[record]]
compound_string = "C[C@H]1CCN(S(=O)(=O)c2cc(NC(=O)Cn3c(=O)[nH]c4ccccc43)ccc2Br)C1"
target_under_test = "UniProt:Q9BXF3"
endpoint_value = 6.30

[[record]]
compound_string = "CN1CCc2c(nnn2CC(=O)Nc2ccc(Cl)c(S(=O)(=O)N3CC[C@H](C4CC4)C3)c2)C1"
target_under_test = "UniProt:Q9BXF3"
endpoint_value = 7.70


Qu. # get_value(readout='pIC50', item= CC1(C)CCN(S(=O)(=O)c2cc(NC(=O)CN3C(=O)CNC3=O)ccc2Cl)C1 )
Ans. 4.60

Qu. Reported pIC50, compound C[C@H]1CCN(S(=O)(=O)c2cc(NC(=O)Cn3nnc4ccccc43)ccc2Br)C1 : ____
Ans. 6.70

====

Target: Histone acetyltransferase KAT2A (Homo sapiens, UniProt Q92830)
Sequence (Q92830 whole entry, the tested form may be a part): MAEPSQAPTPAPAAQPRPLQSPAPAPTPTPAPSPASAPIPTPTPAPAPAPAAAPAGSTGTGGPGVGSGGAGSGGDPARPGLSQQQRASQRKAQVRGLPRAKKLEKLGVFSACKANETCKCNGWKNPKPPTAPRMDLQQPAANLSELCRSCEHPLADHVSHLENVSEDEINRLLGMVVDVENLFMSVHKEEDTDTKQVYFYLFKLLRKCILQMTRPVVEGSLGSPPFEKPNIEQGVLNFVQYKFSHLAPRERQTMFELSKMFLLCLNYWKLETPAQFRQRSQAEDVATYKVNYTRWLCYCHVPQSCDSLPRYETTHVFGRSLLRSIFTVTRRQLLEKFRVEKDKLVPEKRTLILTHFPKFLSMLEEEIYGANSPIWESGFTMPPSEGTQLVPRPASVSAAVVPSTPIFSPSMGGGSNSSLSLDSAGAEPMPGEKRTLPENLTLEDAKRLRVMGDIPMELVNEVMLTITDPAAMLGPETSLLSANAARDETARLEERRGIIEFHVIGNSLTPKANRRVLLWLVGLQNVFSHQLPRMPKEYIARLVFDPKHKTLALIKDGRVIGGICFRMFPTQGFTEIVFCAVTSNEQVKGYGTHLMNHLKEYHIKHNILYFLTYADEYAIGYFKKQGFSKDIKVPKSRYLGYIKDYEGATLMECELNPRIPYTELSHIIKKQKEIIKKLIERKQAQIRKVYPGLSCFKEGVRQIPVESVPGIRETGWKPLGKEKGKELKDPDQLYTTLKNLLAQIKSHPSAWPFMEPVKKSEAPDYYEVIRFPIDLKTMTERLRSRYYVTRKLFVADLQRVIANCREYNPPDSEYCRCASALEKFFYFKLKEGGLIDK
Assay: Binding affinity to human partial length GCN5L2 (E726 to K837 residues) expressed in bacterial expression system by BROMOscan assay
# Kd per entry
Express your answer in nM, writing the number without its unit.

[[record]]
compound_string = "C[C@H]1CCN(S(=O)(=O)c2cc(NC(=O)CN3C(=O)N[C@@](C)(C4CC4)C3=O)ccc2Br)C1"
endpoint_value = 251

[[record]]
compound_string = "CN1CCc2c(nnn2CC(=O)Nc2ccc(Cl)c(S(=O)(=O)N3CC[C@H](C4CC4)C3)c2)C1"
endpoint_value = 501


// moving on: another record for Kd
Qu. So what does the record say about Kd for CN1CCc2c(nnn2CC(=O)Nc2ccc(Br)c(S(=O)(=O)N3CC[C@H](C4CC4)C3)c2)C1 ?
Ans. 158

====

Molecular target: Bromodomain-containing protein 4 (Homo sapiens)
Experiment: Displacement of Alexa Fluor 647-labeled ligand from BRD4 BD2 (unknown origin) measured after 30 mins by TR-FRET assay
property: pIC50
Expect pIC50 as a plain number equal to -log10 of the molar concentration.

The following compounds have reported results that may help.
[[record]]
compound_string = "CN1CCc2c(nnn2CC(=O)Nc2ccc(Br)c(S(=O)(=O)N3CC[C@H](C4CC4)C3)c2)C1"
property = "pIC50"
endpoint_value = 5.30

[[record]]
compound_string = "CN1CCc2c(nnn2CC(=O)Nc2ccc(Cl)c(S(=O)(=O)N3CC[C@H](C4CC4)C3)c2)C1"
property = "pIC50"
endpoint_value = 5.00


Qu. Quick one: pIC50 of C[C@H]1CCN(S(=O)(=O)c2cc(NC(=O)CN3C(=O)N[C@@](C)(C4CC4)C3=O)ccc2Br)C1 ?
Ans. 4.90

====

Target: UniProt:Q9BXF3
Test: Displacement of Alexa Fluor 647-labeled GSK tracer from FLAG-6His-Tev-fused CECR2 (424 to 543 residue) (unknown origin) measured after 15 mins by TR-FRET assay
Listing of recorded pIC50 by entry.
API: returns pIC50 as number; meaning -log10 of concentration in mol/L.

Qu. Need pIC50, item C[C@@H]1CCN(S(=O)(=O)c2cc(NC(=O)CN3C(=O)CNC3=O)ccc2Cl)C1
Ans. 5.30

Qu. Report pIC50 for CC1NC(=O)N(CC(=O)Nc2ccc(Cl)c(S(=O)(=O)N3CCCC3)c2)C1=O (racemic) please.
Ans. 5.20

Qu. Fill in: pIC50 of COCC1CCN(S(=O)(=O)c2cc(NC(=O)CN3C(=O)CNC3=O)ccc2Cl)C1 (racemic) is ___
Ans. 5.40

Qu. Which value of pIC50 has been reported for O=C(CN1C(=O)CNC1=O)Nc1ccc(Cl)c(S(=O)(=O)N2CCCCCC2)c1 in the records?
Ans. 4.90

Qu. Report pIC50 for C[C@H]1CCN(S(=O)(=O)c2cc(NC(=O)CN3C(=O)CNC3=O)ccc2Cl)C1 please.
Ans. 5.50

Qu. # lookup: pIC50 of C[C@H]1CCN(S(=O)(=O)c2cc(NC(=O)Cn3cc(CN(C)C)nn3)ccc2Br)C1
Ans. 6.60
